Field: Ki. Provide a value for each of the compounds that follow.
target_or_test_system: human NK1 receptors (Homo sapiens, UniProt P25103)
Sequence (P25103 whole entry): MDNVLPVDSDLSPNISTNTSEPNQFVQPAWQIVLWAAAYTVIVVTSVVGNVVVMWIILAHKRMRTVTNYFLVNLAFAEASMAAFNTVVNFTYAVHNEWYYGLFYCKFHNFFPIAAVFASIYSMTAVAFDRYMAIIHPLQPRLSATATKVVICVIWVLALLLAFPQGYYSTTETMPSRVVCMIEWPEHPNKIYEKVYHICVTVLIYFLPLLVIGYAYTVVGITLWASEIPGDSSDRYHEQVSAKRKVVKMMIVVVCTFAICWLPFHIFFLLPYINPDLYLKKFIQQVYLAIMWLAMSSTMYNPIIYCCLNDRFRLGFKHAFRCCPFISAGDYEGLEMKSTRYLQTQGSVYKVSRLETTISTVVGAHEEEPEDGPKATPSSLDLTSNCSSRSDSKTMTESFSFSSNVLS
protocol: Affinity for the NK1 receptor, [3H]substance P displacement binding assay
experimental_context: human NK1 receptors in CHO cells (Semliki virus expression system); [3H]substance P 0.6 nM; 60 min at room temperature; read-out: pKi (affinity to the NK-1 receptor) (converted)
Description: The affinity of test compounds for the NK1 receptor was evaluated at human NK1 receptors in CHO cells infected with the human NK1 receptor (using the Semliki virus expression system) and radiolabelled with [^3H]substance P (final concentration 0.6 nM). Binding assays were performed in HEPES buffer (50 mM, pH 7.4) containing BSA (0.04%) leupeptin (8 μg/ml), MnCl2 (3 mM) and phosphoramidon (2 μM). […]

1) Cc1ccccc1C1=CN(C)C(=O)C12CCN(C(=O)c1cc(C(F)(F)F)cc(C(F)(F)F)c1)CC2 [Example 170]	11 nM
2) CC1NC(=O)C2(CCN(C(=O)c3cc(C(F)(F)F)cc(C(F)(F)F)c3)CC2)N1c1ccccc1 (racemic) [Example 91]	7.59 nM
3) COc1nc(OC)nc(N2CN(c3ccc(Cl)c(Cl)c3)C3(CCN(C(=O)c4cc(C(F)(F)F)cc(C(F)(F)F)c4)CC3)C2=O)n1 [Example 39]	93.3 nM
4) CN1CN(c2ccccc2Cl)C2(CCN(C(=O)c3cc(C(F)(F)F)cc(C(F)(F)F)c3)CC2)C1=O [Example 70]	4.27 nM
5) O=C(c1cc(C(F)(F)F)cc(C(F)(F)F)c1)N1CCC2(CC1)C(=O)N(c1ncc(Cl)cc1Cl)CN2c1ccccc1 [Example 26]	33.9 nM
6) Cc1ccccc1C1CNC(=O)C12CCN(C(=O)c1cc(C(F)(F)F)cc(C(F)(F)F)c1)CC2 (racemic) [Example 176]	7.59 nM
7) COc1nc(OC)nc(N2CN(c3ccccc3)C3(CCN(C(=O)c4cc(C(F)(F)F)cc(C(F)(F)F)c4)CC3)C2=O)n1 [Example 6]	2.19 nM

Next:
q: Value wanted: Ki (human NK1 receptors (Homo sapiens, UniProt P25103)) of entry Cc1ccccc1N1CN(CCN2CCCC2)C(=O)C12CCN(C(=O)c1cc(C(F)(F)F)cc(C(F)(F)F)c1)CC2 [Example 58]
a: 8.32 nM

Data origin, for the record: patent US6482829B2
